Taken from patent US20030055065A1.

- Target of assay: farnesyl protein transferase (FPT), partially purified from rat brain (Rattus norvegicus, UniProt Q02293+Q04631)
- Construct: were partially purified from rat brain by ammonium sulfate fractionation followed by Q-Sepharose
- Sequence (Q02293 whole entry, one chain of several): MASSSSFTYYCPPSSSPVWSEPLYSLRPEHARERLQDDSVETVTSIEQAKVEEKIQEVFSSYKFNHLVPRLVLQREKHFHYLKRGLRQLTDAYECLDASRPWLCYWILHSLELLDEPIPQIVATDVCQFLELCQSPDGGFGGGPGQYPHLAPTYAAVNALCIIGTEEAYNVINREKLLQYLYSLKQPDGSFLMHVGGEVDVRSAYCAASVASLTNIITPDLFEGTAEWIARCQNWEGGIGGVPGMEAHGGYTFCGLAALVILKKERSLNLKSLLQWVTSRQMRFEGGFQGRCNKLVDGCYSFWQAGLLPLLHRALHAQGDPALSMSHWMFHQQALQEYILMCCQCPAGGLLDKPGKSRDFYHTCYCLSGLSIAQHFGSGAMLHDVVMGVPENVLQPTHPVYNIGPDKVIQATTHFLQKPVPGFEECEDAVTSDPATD
- Assay details: Inhibition of farnesyl protein transferase (transfer of [3H]farnesyl to Ras-CVLS)
- Type: biochemical
- Condition set: Ras-CVLS farnesylation, partially purified rat brain FPT; read-out: FPT IC50
- Protocol: 1. In vitro enzyme assays: Inhibition of farnesyl protein transferase and geranylgeranyl protein transferase. Human farnesyl protein transferase was also expressed in E. coli, using cDNA clones encoding both the α and β subunits. […] The reaction was allowed to proceed for 30 minutes at room temperature and then stopped with 0.5 ml of 4% sodium dodecyl sulfate (SDS) followed by 0.5 ml of cold 30% trichloracetic acid (TCA). […] Percent inhibition was calculated relative to the DMSO vehicle control.
Quantity measured: pIC50
Answers are plain numbers, as −log10 of the molar value.

Look over these answered cases.
[[record]]
compound = "O=C(C(c1ccccc1)c1ccccc1)N1CCN(C2c3ccc(Cl)cc3CCc3cccnc32)CC1 (centres unmarked) [Example 79]"
quantity_measured = "pIC50"
observed_measurement = 5.60

[[record]]
compound = "O=C(Nc1ccccc1)N1CCC(C2c3ccc(Cl)cc3CCc3cccnc32)CC1 (centres unmarked) [Example 312]"
quantity_measured = "pIC50"
observed_measurement = 6.05

[[record]]
compound = "CCOC(=O)C(=O)N1CCC(=C2c3ccc(Cl)cc3CCc3cccnc32)CC1 [Example 56]"
quantity_measured = "pIC50"
observed_measurement = 5.10


For each entry beneath this line, provide reported pIC50.
1. CC(=O)N1CCC(=C2c3ccc(Cl)cc3CCc3cc(Cl)cnc32)CC1 [Example 62]
2. CS(=O)(=O)Nc1ccc(C(=O)N2CCC(=C3c4ccc(Cl)cc4CCc4cccnc43)CC2)cc1 [Example 91]
3. O=C(Cc1ccc(O)cc1)N1CCC(=C2c3ccc(Cl)cc3CCc3cccnc32)CC1 [Example 128]
4. NS(=O)(=O)c1ccc(C(=O)N2CCC(=C3c4ccc(Cl)cc4CCc4cccnc43)CC2)cc1 [Example 90]
5. O=C(CN1C(=O)c2ccccc2C1=O)N1CCC(=C2c3ccc(Cl)cc3CCc3cccnc32)CC1 [Example 3]

Completion:
1. 5.11
2. 5.41
3. 5.52
4. 5.47
5. 6.18
